# key: entry, value: activity change
experiment: qHTS for Inhibitors of Inflammasome Signaling: IL-1-beta AlphaLISA Primary Screen; conditions: THP-1 LPS/ATP IL-1B secretion, 16 h; at 57.5 µM, stronger effect = lower value; note: % is set by controls: 0 for no effect and ±100 for the full control effect
Hit rate of the full screen: of about 360,000 compounds, about 17,000 (4.7%) were called active. Inconclusive results (about 5%) are left out. The sample holds actives, similar compounds and a random draw of the others, so the mix is not that of the screen.
The answer is to be given in %; state only the numeric part.

>>> reported_value("CCc1ccc(NC(=O)CN2C(=O)COc3ccc(S(=O)(=O)N4CCCC4)cc32)cc1")
-54.9
>>> reported_value("Cc1ccc(S(=O)(=O)N(C)C)cc1NC(=O)c1n[nH]c(=O)c2ccccc12")
-9.1

query: // query activity change value for entry CCOc1ccc(OCc2ccc(C(=O)N(C)c3ccccc3)o2)cc1
result: -7.29

query: Same thing, different molecule: CCOC(=O)c1cc(C)nc(S(C)(=O)=O)c1C#N
result: -106

====

assay: qHTS for Inhibitors of Inflammasome Signaling: IL-1-beta AlphaLISA Primary Screen; details: THP-1 LPS/ATP IL-1B secretion, 16 h; at 57.5 µM, stronger effect = lower value
In all, about 360,000 compounds went through this assay and about 17,000 (4.7%) were called active. Not shown: some 5% with an inconclusive outcome. What follows is part of a selection rich in actives, with near analogues and random picks from the rest.
reported-metric: activity change (%)
Dear colleague, please return just the value in %, with no unit written.

>>> reported_value("NC1=NC(c2ccc([N+](=O)[O-])cc2)N(c2ccc(F)cc2)C(N)=N1 (centres undefined)")
-52.3
>>> reported_value("CC1C(C)N(C(=O)CCl)c2ccccc2N1C(=O)CCl (centres undefined)")
-101
>>> reported_value("CC1CCN(C(=S)c2cccc(O)c2)CC1")
10.7
>>> reported_value("Nc1scc(-c2ccncc2)c1Cl")
-0.276
>>> reported_value("CCN(c1ccccc1)S(=O)(=O)c1cc(C(=O)NCc2ccccn2)ccc1C")
-10.4

query: Need activity change, item CCCNC(=O)C1(C)CCN(C(=O)c2ccc(F)cc2Cl)C1 (centres undefined)
result: 16.4

query: Try this molecule next: Cn1c(NC(=O)c2ccccc2)nc2ccccc21
result: 35.1

query: // query: CSCCC(NC(=O)c1ccccc1)C(=O)N1CCCCCCC1 (centres undefined)
result: -20.8

query: Likewise for CCCc1[nH]nc2c1C(c1ccc(OC)c(Cn3nc(C)c(Br)c3C)c1)C(C#N)=C(N)O2 (centres undefined) ?
result: -67

====

assay: qHTS for Inhibitors of Inflammasome Signaling: IL-1-beta AlphaLISA Primary Screen; conditions: THP-1 LPS/ATP IL-1B secretion, 16 h; at 57.5 µM, stronger effect = lower value
In all, about 360,000 compounds went through this assay and about 17,000 (4.7%) were called active. Not shown: some 5% with an inconclusive outcome. Many of the other results were omitted from the sample, so actives are more common in it than they were.
reported-metric: activity change

Example results:
>>> reported_value("CCC(C(=O)NC1CCCC1)N(C(=O)c1snc(C(N)=O)c1N)c1ccc2c(c1)OCCO2 (centres undefined)")
"-12.2% (inactive)"
>>> reported_value("CCOc1ccc(N(C(=O)c2snc(C(N)=O)c2N)C(C(=O)NCC2CCCO2)c2c[nH]c3ccccc23)cc1 (centres undefined)")
"-52.3% (active)"
>>> reported_value("COc1ccc(Nc2cc(=O)oc3ccccc23)cc1")
"34.3% (inactive)"

query: What value of measured activity change is listed for COc1ccc(N(C(=O)c2snc(C(N)=O)c2N)C(C(=O)NC2CCCC2)c2ccco2)cc1OC (centres undefined) ?
result: 37% (inactive)

query: Moving on to the next compound: COc1ccc2oc(=O)cc(-c3cc4ccccc4o3)c2c1
result: -52.1% (active)

query: Query COc1cccc(N(C(=O)c2snc(C(N)=O)c2N)C(C(=O)NCC2CCCO2)c2c[nH]c3ccccc23)c1 (centres undefined) next
result: -66.5% (active)

query: And for CCOc1cc(C(C(=O)NCC2CCCO2)N(C(=O)Cn2nnc3ccccc32)c2cccc(OC)c2)ccc1O (centres undefined) ?
result: -7.04% (inactive)

query: And Cc1ccc(N(C(=O)c2snc(C(N)=O)c2N)C(C(=O)NCC2CCCO2)c2c[nH]c3ccccc23)cc1 (centres undefined) ?
result: -66.2% (active)

query: Try this compound next: COc1cccc2cc(-c3cc(=O)oc4cc(C)c(O)cc34)oc12
result: 0.212% (inactive)

====

Experiment: qHTS for Inhibitors of Inflammasome Signaling: IL-1-beta AlphaLISA Primary Screen
Conditions: THP-1 LPS/ATP IL-1B secretion, 16 h; at 57.5 µM
Source text: Inflammasomes are a set of intracellular multi-protein complexes that enable autocatalytic activation of inflammatory caspases and drive the innate immune response to counter harmful agents. […] A qHTS assay, based on AlphaLISA technology, was developed to screen the Molecular Libraries Small Molecule Repository (MLSMR) to look for novel inflammasome inhibitors. The assay detects IL-1B using AlphaLISA anti-IL-1B acceptor and donor beads. […]
The whole screen tested about 360,000 compounds, of which about 17,000 (4.7%) were called active. About 5% were inconclusive and are not listed. No stated cut-off is given here; in the data, active means activity change below about -50%; inconclusive means mostly about -30% to -49%; inactive means weaker than that. The sample holds actives, similar compounds and a random draw of the others, so the mix is not that of the screen.
Choose one outcome from this list and give only that: active, inactive

// below: answered compounds
>>> label_class("O=C(C1CCN(CC2CCCCC2)CC1)N1CCCC1")
"inactive"
>>> label_class("CCN(CC)S(=O)(=O)c1cc(C(=O)Nc2cc(S(=O)(=O)N3CCOCC3)ccc2N2CCCC2)ccc1F")
"inactive"
>>> label_class("CCN(CC)S(=O)(=O)c1ccc(N2CCOCC2)c(NC(=O)c2ccc(=O)n(C)n2)c1")
"inactive"
>>> label_class("CCN(CC)S(=O)(=O)c1ccc(N2CCCC2)c(NC(=O)c2ccc([N+](=O)[O-])o2)c1")
"active"

query: Hi, sorry to bother you, what did the test record for CCN(CC)S(=O)(=O)c1ccc(N2CCN(C)CC2)c(NC(=O)Nc2ccccc2F)c1 ?
result: active

query: Same for COC(=O)[C@@]1(Cc2ccc(OC)cc2)[C@H]2c3cc(C(=O)N4CCCC4)n(Cc4ccc(OC(F)(F)F)cc4)c3C[C@H]2CN1C(=O)c1ccccc1
result: inactive

query: Also need O=[N+]([O-])c1ccc2c(c1)C(N1CCOCC1)/C(=C/C1(O)CCCCC1)O2 (centres undefined) , thanks.
result: inactive

query: Consider next the compound CC(=O)Nc1cccc(NC(=O)c2ccc3c(c2)CCN3S(C)(=O)=O)c1 in the same way.
result: inactive

query: Also COC(=O)CC(CC(=O)OC)n1cccc1 ?
result: inactive

====

assay: qHTS for Inhibitors of Inflammasome Signaling: IL-1-beta AlphaLISA Primary Screen; details: THP-1 LPS/ATP IL-1B secretion, 16 h; at 57.5 µM, stronger effect = lower value
Among all 360,000 compounds or so, about 17,000 (4.7%) were called active. Inconclusive results (about 5%) are left out. The list comes from a sample in which actives are over-represented; it also holds close analogues and randomly drawn compounds.
Listed compounds paired with reported activity change
API: value field is a number in %; no unit string.

>>> reported_value("Cc1ccc(Nc2nc(C)cc(C)c2C(N)=O)cc1")
19.4
>>> reported_value("CC(C)(C)OC(=O)NCCCCCNC(=O)c1[nH]cnc1C(=O)Nc1nccs1")
-8.09
>>> reported_value("Cc1ccc(Nc2cc(C)nc3c(C)ccc([N+](=O)[O-])c23)cc1")
-61.1
>>> reported_value("CS(=O)(=O)c1sc(C(=O)NC(=S)Nc2ccc(OC(F)(F)F)cc2)c2c1C=CCC2")
21.9

Shifting focus to the compound that follows.
query: # input compound: C=CCOc1ccc(/C=C/C(=O)OC(C)C(=O)Nc2ccc(NC(C)=O)cc2)cc1 (stereo not given) ; wanted: its activity change
result: -0.196

====

experiment: qHTS for Inhibitors of Inflammasome Signaling: IL-1-beta AlphaLISA Primary Screen; details: THP-1 LPS/ATP IL-1B secretion, 16 h; at 57.5 µM
The whole screen tested about 360,000 compounds, of which about 17,000 (4.7%) were called active. Not shown: some 5% with an inconclusive outcome. Cut-off read from the data, not from the text of the source: active = activity change below about -50%; inconclusive = mostly about -30% to -49%; inactive = weaker than that. What follows is part of a selection rich in actives, with near analogues and random picks from the rest.
Log the outcome using a class from active, inactive

These recorded examples may help you get a feel for the data.
>>> label_class("CSc1ccccc1-c1nnc(-c2ccc(Cl)cc2)o1")
"inactive"
>>> label_class("Cc1nn(-c2ccccc2)c2c1C(=O)NC(=O)C(C)(C)C2")
"inactive"
>>> label_class("O=C(/C=C/c1cn(-c2ccccc2)nc1-c1ccc2c(c1)OCCO2)NCCCN1CCOCC1")
"active"
>>> label_class("O=C(NCc1nnc(SCC(=O)N2CCCCCC2)o1)c1ccc(F)cc1")
"inactive"
>>> label_class("CCOC(=O)C1(CCOc2ccccc2)CCN(Cc2ccc(C#CCCO)cc2)CC1")
"active"

query: Please let me know the test result on file for Cc1cc(Br)cn2c(Cc3ccccc3C(F)(F)F)c(-c3ccc(Cl)cc3)nc12 .
result: inactive

query: Request: Cc1cc(N2CCN(c3ccc(F)cc3)CC2)n2ncnc2n1
result: inactive

query: Again, but for CCOC(=O)N1CCN(C(=O)C2CC(c3ccc(F)cc3)=NO2)CC1 (configuration not stated)
result: inactive

query: Same question for N=c1n(CCc2ccccc2)c2ccccc2n1Cc1ccccc1F please.
result: active

query: Moving on to Cc1cc(C)nc(NC(=O)c2cccc([N+](=O)[O-])c2)c1
result: inactive

query: Input O=C(O)c1ccccc1-c1cccc2nncn12
result: inactive

query: What would you report for COc1ccc(-c2nnc(SC(=O)N3c4ccccc4Sc4ccccc43)o2)cc1 ?
result: active

query: Same for C[C@@H]1CN([C@H](C)CO)C(=O)c2cc(Br)cnc2O[C@@H]1CN(C)Cc1cncnc1
result: inactive

query: Check O=C(NCCCN1CCOCC1)c1cn(-c2ccccc2)nc1-c1ccc(F)cc1 too.
result: inactive

query: Try this molecule too: Oc1ccccc1-c1cc(-c2ccc(Cl)cc2)n[nH]1
result: active

query: Input Cc1nn(-c2ncccn2)c2c1C(=O)CC(C)(C)C2Br (configuration not stated)
result: active

query: How about this molecule: C[C@@H]1CN([C@@H](C)CO)C(=O)CCCn2nncc2CO[C@H]1CN(C)C(=O)Nc1ccc(C(F)(F)F)cc1
result: inactive

query: Item: COc1ccc(-c2nnc(-c3ccc4ccccc4c3)o2)cc1
result: inactive

query: Same lookup for CC(=O)NC(C)c1nc2ccccc2n1Cc1ccccc1F (configuration not stated) , please.
result: inactive

query: Same read-out for O=C(NCc1nnc(SCC(=O)N2CCC(Cc3ccccc3)CC2)o1)c1ccco1 ?
result: active

query: Item: CSc1ccccc1NC(=O)CN(C)CC(=O)Nc1cccc(Br)c1
result: active

query: Then O=C(COC(=O)Cc1ccccc1F)NCCc1ccccc1 ?
result: inactive

Value source: PubChem BioAssay AID743279
